- Tested on: HT29 colon
- Protocol notes: NCI tumour cell line growth inhibition, 48 h

- Compound: "C[C@H](CN1CC(=O)NC(=O)C1)N1CC(=O)NC(=O)C1"
  TGI: "> 100 µM"
- Compound: "Nc1nn(CC(O)CO)c(=O)s1 (stereo unspecified)"
  TGI: "> 100 µM"
- Compound: "Clc1ccc(C(c2ccc(Cl)cc2)N2CCNCC2)cc1"
  TGI: "4.51 µM"
- Compound: "CCCOC(=O)N[C@H]1CCc2cc(OC)c(OC)c(OC)c2-c2ccc(SC)c(=O)cc21"
  TGI: "> 39.4 µM"
- Compound: "O=C(CCc1ccc(O)c(O)c1)NCCc1ccc(O)c(O)c1"
  TGI: "> 100 µM"
- Compound: "Cc1cc(Oc2cnc(=O)[nH]c2)cs1"
  TGI: "> 100 µM"
- Compound: "C=CC[C@@H]1C=C[C@@H](C(=O)OC)n2c(=O)n(-c3ccccc3)c(=O)n21"
  TGI: "> 100 µM"
- Compound: "CC(C)(O)[C@@H]1CC[C@@]2(C)CCC[C@H](O)[C@H]2C1"
  TGI: "> 100 µM"
- Compound: "COc1ccc(SC2c3ccc(C)cc3Oc3nc(N)c(C#N)c(N)c32)cc1 (stereo unspecified)"
  TGI: "4.83 µM"
- Compound: "CCO/C=C1\\N=C(C(Cl)c2ccccc2)OC1=O (stereo unspecified)"
  TGI: "> 100 µM"
- Compound: "CN(C)C(=S)/N=c1\\ss/c(=N\\C(=S)N(C)C)n1-c1ccc(Cl)cc1"
  TGI: "> 100 µM"

====

- Test system: CCRF-CEM leukemia
- Protocol notes: NCI tumour cell line growth inhibition, 48 h
Measurement name: TGI

- Chemical string: "Cc1ccc(-c2cc(=O)c3cc(C)c(C)c(C(=O)O)c3o2)cc1"
  Measured result: "> 100 µM"
- Chemical string: "COc1cc2cc3c4c(cc(OC)c(OC)c4c2cc1OC)CCN3C(=O)N(C)C"
  Measured result: "> 100 µM"
- Chemical string: "O=C(CCc1ccc(O)c(O)c1)NCCc1ccc(O)c(O)c1"
  Measured result: "78.3 µM"
- Chemical string: "COc1ccc(-c2cn(-c3cccc(C(=O)/C=C/c4ccc(O)c(OC)c4)c3)c(=O)[nH]2)cc1"
  Measured result: "5.81 µM"
- Chemical string: "CN1CCN(/C(N)=C(\\C#N)C(=O)Nc2ccccc2)CC1"
  Measured result: "> 100 µM"

====

- Tested on: SF-295 CNS
- Protocol notes: NCI tumour cell line growth inhibition, 48 h
Where a SMILES comes first, the peptide text is derived from it. [ ]: non-standard residue; d: D form. pGlu = O=C1CC[CH](C(=O)O)N1

- Compound: "CCOC(=O)C1=NN(c2ccc(Cl)cc2)C2=CC(C)=NN(C)C(=S)N21"
  TGI: "> 100 µM"
- Compound: "CN1C(=O)C(=Cc2cn(Cc3ccccc3)c3ccccc23)C(=O)N(C)C1=O"
  TGI: "> 100 µM"
- Compound: "COc1cc2c(cc1OC)C(CC1(O)CCCCC1)N(S(=O)(=O)c1ccc(C)cc1)CC2 (centres undefined)"
  TGI: "> 10 µM"
- Compound: "CO[C@H]1C[C@H](n2cc(C)c(=O)[nH]c2=O)O[C@@H]1CO"
  TGI: "> 100 µM"
- Compound: "O=C(Cc1ccccc1)N=Nc1c(O)[nH]c2ccccc12"
  TGI: "> 100 µM"
- Compound: "O=C1C(Cl)=C(Nc2cccc(O)c2)C(=O)N1Cc1ccc(Cl)cc1"
  TGI: "18.5 µM"
- Compound: "O=C(O)CN(CC(=O)O)Cc1ccn(-c2cccc(-n3ccc(CN(CC(=O)O)CC(=O)O)n3)n2)n1"
  TGI: "> 100 µM"
- Compound: "CCCCNC(=S)c1ccc(OC(=O)Nc2ccc(Cl)cc2)cc1"
  TGI: "> 100 µM"
- Compound: "CC(C)(O)[C@@H]1CC[C@@]2(C)CCC[C@H](O)[C@H]2C1"
  TGI: "> 100 µM"
- Compound: "CC1CC(=O)Nc2ccc(N=NN(C)C)cc2N1C=O (centres undefined)"
  TGI: "> 100 µM"
- Compound: "CCOc1ccc2nc(-c3cccc(OCC(=O)NC(C)C)c3)nc(Nc3ccc(-c4cn[nH]c4)cc3)c2c1"
  TGI: "3.01 µM"
- Compound: "Cc1cc2c(c(C(=O)NCCC(=O)N[C@@H](C)C(=O)OCc3ccccc3)c1)Oc1c(cc(C)cc1C(=O)NCCC(=O)N[C@@H](C)C(=O)OCc1ccccc1)S2"
  TGI: "> 100 µM"
- Compound: "CC1=C(C(=O)Nc2ccc([N+](=O)[O-])cc2)C(c2ccccc2O)C(C(=O)Nc2ccc([N+](=O)[O-])cc2)=C(C)N1"
  TGI: "72.2 µM"
- Compound: "COc1cc(C=O)c(-c2cc3c(cc2C2(C)OCCS2)OCO3)c(OC)c1OC (centres undefined)"
  TGI: "48 µM"
- Compound: "CCCCCC(O)(CCCCC)CCCCCCCCC1=C(O)c2ccccc2C(=O)C1=O"
  TGI: "40.5 µM"
- Compound: "COc1cc2cc3c4c(cc(OC)c(OC)c4c2cc1OC)CCN3C(=O)N(C)C"
  TGI: "> 100 µM"
- Compound: "CC(NC(=O)C(Cc1cnc[nH]1)NC(=O)C1CCC(=O)N1)C(N)=O (stereo not drawn) ([pGlu]-His-Ala-NH2; configuration not given here)"
  TGI: "> 100 µM"
- Compound: "O=C1OC(c2ccc(Cl)cc2)(c2ccc(Cl)cc2)c2c1ccc1ccccc21"
  TGI: "> 100 µM"
- Compound: "Cn1cc(-c2nc(-c3c[nH]c4ccncc34)cs2)c2cc(F)ccc21"
  TGI: "3.02 µM"
- Compound: "CCCOC(=O)N[C@H]1CCc2cc(OC)c(OC)c(OC)c2-c2ccc(SC)c(=O)cc21"
  TGI: "6.77 µM"
- Compound: "C[C@H](CN1CC(=O)NC(=O)C1)N1CC(=O)NC(=O)C1"
  TGI: "> 100 µM"
- Compound: "COc1cc(-c2csc(NC(=O)Nc3cc(C(F)(F)F)cc(C(F)(F)F)c3)n2)cc(OC)c1OC"
  TGI: "5.46 µM"
- Compound: "O=c1cc(-c2ccccc2)nc(/C=C(\\O)c2ccncc2)n1-c1ccccc1"
  TGI: "> 100 µM"
- Compound: "CN1CCN(/C(N)=C(\\C#N)C(=O)Nc2ccccc2)CC1"
  TGI: "> 100 µM"
- Compound: "C/C(CC(=O)Nc1ccc(Cl)cc1)=N\\NC(=O)C[n+]1ccccc1"
  TGI: "> 100 µM"
- Compound: "CCOC(=O)c1cn(CC)c2cc3c(cc2c1=O)CCS3(=O)=O"
  TGI: "> 100 µM"
- Compound: "CCC/C(Cl)=N\\OC(=O)Nc1ccc(F)c([N+](=O)[O-])c1"
  TGI: "> 100 µM"
- Compound: "N#C/C(=C\\Nc1ccccn1)C(=O)c1ccco1"
  TGI: "> 100 µM"
- Compound: "COc1cc2c(cc1OC(=O)c1cc3ccccc3[nH]1)N=C[C@@H]1CCCN1C2=O"
  TGI: "4.48 µM"
- Compound: "Clc1ccc(/C=N/Nc2nnc3c4ccccc4c4ncccc4c3n2)cc1"
  TGI: "> 10 µM"
- Compound: "CCOC(=O)c1cc2c(cn1)[nH]c1cccc(N)c12"
  TGI: "> 100 µM"
- Compound: "COc1cccc2c1-c1c(OC)cccc1SS2"
  TGI: "43.6 µM"
- Compound: "O=C(/C=C/c1cccc([N+](=O)[O-])c1)c1ccc(O)c(CN2CCN(c3cc4c(cc3F)c(=O)c(C(=O)O)cn4C3CC3)CC2)c1"
  TGI: "3.9 µM"
- Compound: "CSc1n(Cc2ccc3ccccc3c2)c(C)c[n+]1Cc1ccc2ccccc2c1"
  TGI: "2.69 µM"
- Compound: "O=C(NCCCCCCNC(=O)n1cc(F)c(=O)[nH]c1=O)NCCCOCCOCCOCCOCCOCCOCCOCCOCCOCCOCCOCCOCCOCCOCCOCCOCCOCCOCCOCCOCCOCCCNC(=O)C(O)C(O)C(OC1OC(CO)C(O)C(O)C1O)C(O)CO (centres undefined)"
  TGI: "> 100 µM"
- Compound: "O=C1C2CC=CCC2C(=O)C12CCc1ccccc12 (centres undefined)"
  TGI: "> 100 µM"
- Compound: "COC(=O)c1c(O)ccc2c1c1c(n2Cc2ccccn2)C(=O)c2ccccc2C1=O"
  TGI: "70.6 µM"
- Compound: "CC(C)=CCCC1(Sc2ccccc2)C(=O)OCC1C=C(C)C (centres undefined)"
  TGI: "> 100 µM"
- Compound: "O=C1c2ccccc2-c2nnc(-c3ccc(Cl)cc3)cc21"
  TGI: "> 10 µM"
